AUC(0-t) listing for selected compounds.
Assay: Pharmacokinetic test in rats
Type: in vivo
Details: rat, po; male SD rats, intragastric administration (10 mg/kg), plasma

{"smiles.str": "O=C(N[C@H]1CC[C@H](CCOc2cc(CN3Cc4ccc(C(F)(F)F)cc4C3)ccn2)CC1)C1CC1", "unit.string": "ng·h/mL", "AUC(0-t)": 7550}
{"smiles.str": "[2H]C([2H])([2H])C(=O)N[C@H]1CC[C@H](CCOc2cc(CN3Cc4ccc(C(F)(F)F)cc4C3)ccn2)CC1", "unit.string": "ng·h/mL", "AUC(0-t)": 41500}
{"smiles.str": "O=C(N[C@H]1CC[C@H](CCOc2cc(CN3Cc4ccc(C(F)(F)F)cc4C3)ccn2)CC1)OC1CC1", "unit.string": "ng·h/mL", "AUC(0-t)": 13600}

====

inhibition at 0.1 µM listing for selected molecules.
System: testosterone level in NCI-H295R cells
Test: cells
Format: cell-based
Conditions: Homo sapiens, 72 h, read-out: Testosterone level in H295R (Elisa) inh.% 100 nM

{"molecule": "O=C(OC1CC1)N1CCC(Cc2cc3oc(CN4Cc5ccc(C(F)(F)F)cc5C4)cc(=O)c3o2)CC1 [Compound 42]", "unit.string": "%", "inhibition at 0.1 µM": 76.9}
{"molecule": "O=C(N[C@H]1CC[C@H](CCOc2cc(CN3Cc4ccc(C(F)(F)F)cc4C3)ccn2)CC1)OC1CC1 [Compound 51]", "unit.string": "%", "inhibition at 0.1 µM": 74.4}
{"molecule": "COc1cc(CN2Cc3ccc(C(F)(F)F)cc3C2)cc2cc(C3CCN(C(=O)OC4CC4)CC3)oc12 [Compound 54]", "unit.string": "%", "inhibition at 0.1 µM": 59.1}
{"molecule": "N#Cc1cc(CN2Cc3ccc(C(F)(F)F)cc3C2)cc2cc(C3CCN(C(=O)OC4CC4)CC3)oc12 [Compound 53]", "unit.string": "%", "inhibition at 0.1 µM": 72.5}
{"molecule": "CS(=O)(=O)N1CCC(COc2ccc(CN3Cc4ccccc4C3)c3cccnc23)CC1 [Compound 4]", "unit.string": "%", "inhibition at 0.1 µM": 81.5}
{"molecule": "O=C(N[C@H]1CC[C@H](CCOc2cc(CN3Cc4ccc(C(F)(F)F)cc4C3)ccn2)CC1)[C@@H]1CC1(F)F [Compound 71]", "unit.string": "%", "inhibition at 0.1 µM": 74.9}
{"molecule": "COc1nc(CN2Cc3ccc(C(F)(F)F)cc3C2)ccc1OCC1CCN(C(=O)C2CC(F)(F)C2)CC1 [Compound 75]", "unit.string": "%", "inhibition at 0.1 µM": 76.2}
{"molecule": "CS(=O)(=O)N1CCC(CCOc2cc(CN3Cc4ccc(C5CC5)cc4C3)ccn2)CC1 [Compound 50]", "unit.string": "%", "inhibition at 0.1 µM": 51.7}
{"molecule": "[2H]C([2H])([2H])C(=O)N[C@H]1CC[C@H](Cc2cc3oc(CN4Cc5ccc(C(F)(F)F)cc5C4)cc(=O)c3o2)CC1 [Compound 67]", "unit.string": "%", "inhibition at 0.1 µM": 52}
{"molecule": "O=C(OC1CC1)N1CCC(/C=C/c2coc(CN3Cc4cc5c(cc4C3)CCC5)cc2=O)CC1 [Compound 43]", "unit.string": "%", "inhibition at 0.1 µM": 75.6}
{"molecule": "N#Cc1cc(CN2Cc3ccc(C(F)(F)F)cc3C2)cc2cc([C@H]3CC[C@H](NC(=O)C4CC4)CC3)oc12 [Compound 69]", "unit.string": "%", "inhibition at 0.1 µM": 79}
{"molecule": "CS(=O)(=O)N1CCC(C2=COc3cc(CN4Cc5ccc(C(F)(F)F)cc5C4)ccc3O2)CC1 [Compound 84]", "unit.string": "%", "inhibition at 0.1 µM": 74}
{"molecule": "O=C(OC1CC1)N1CCC2(CC1)CC(Oc1cc(CN3Cc4ccc(C(F)(F)F)cc4C3)ccn1)C2 [Compound 48]", "unit.string": "%", "inhibition at 0.1 µM": 77.5}
{"molecule": "[2H]C([2H])([2H])n1cc(C(=O)N[C@H]2CC[C@H](CCOc3cc(CN4Cc5ccc(C(F)(F)F)cc5C4)ccn3)CC2)cn1 [Compound 63]", "unit.string": "%", "inhibition at 0.1 µM": 64.4}
{"molecule": "O=C(OC1CC1)N1CCC(COc2ccc(CN3Cc4ccc(C(F)(F)F)cc4C3)c3ccc(F)nc23)CC1 [Compound 36]", "unit.string": "%", "inhibition at 0.1 µM": 56.8}
{"molecule": "CS(=O)(=O)N1CC(OC(=O)N2CCC(COc3ccc(CN4Cc5ccc(C(F)(F)F)cc5C4)c4c3S(=O)(=O)CC4)CC2)C1 [Compound 39]", "unit.string": "%", "inhibition at 0.1 µM": 55.8}
{"molecule": "CS(=O)(=O)N1CCC(c2cc3oc(CN4Cc5ccc(C(F)(F)F)cc5C4)cc(=O)c3o2)CC1 [Compound 30]", "unit.string": "%", "inhibition at 0.1 µM": 59.1}
{"molecule": "CS(=O)(=O)N1CCC(CCn2ccc(CN3Cc4ccc(C5CC5)cc4C3)cc2=O)CC1 [Compound 16]", "unit.string": "%", "inhibition at 0.1 µM": 51.7}
{"molecule": "O=C(N[C@H]1CC[C@H](c2cc3oc(CN4Cc5ccc(C(F)(F)F)cc5C4)cc(=O)c3o2)CC1)C1CC(F)(F)C1 [Compound 72]", "unit.string": "%", "inhibition at 0.1 µM": 81}
{"molecule": "CS(=O)(=O)N1CC(OC(=O)N2CCC(CCOc3cc(CN4Cc5ccsc5C4)ccn3)CC2)C1 [Compound 41]", "unit.string": "%", "inhibition at 0.1 µM": 51.5}
{"molecule": "O=C(N[C@H]1CC[C@H](CCOc2cc(CN3Cc4ccc(C(F)(F)F)cc4C3)ccn2)CC1)[C@H]1CC1(F)F [Compound 70]", "unit.string": "%", "inhibition at 0.1 µM": 68.9}
{"molecule": "CS(=O)(=O)N1CC(OC(=O)N2CCC3(CC2)CC(Oc2cc(CN4Cc5ccc(C(F)(F)F)cc5C4)ccn2)C3)C1 [Compound 38]", "unit.string": "%", "inhibition at 0.1 µM": 68.2}
{"molecule": "CS(=O)(=O)N1CC(OC(=O)N2CCC(COc3ccc(CN4Cc5ccc(C(F)(F)F)cc5C4)c4c3OCCO4)CC2)C1 [Compound 37]", "unit.string": "%", "inhibition at 0.1 µM": 87.1}
{"molecule": "O=C(CC(F)(F)F)N[C@H]1CC[C@H](CCOc2cc(CN3Cc4ccc(C(F)(F)F)cc4C3)ccn2)CC1 [Compound 76]", "unit.string": "%", "inhibition at 0.1 µM": 70}
{"molecule": "O=C(N[C@H]1CC[C@H](Cc2cc3oc(CN4Cc5ccc(C(F)(F)F)cc5C4)cc(=O)c3o2)CC1)C1CC1 [Compound 66]", "unit.string": "%", "inhibition at 0.1 µM": 54.8}
{"molecule": "O=C(OC1CC1)N1CCC(CCOc2ccnc(CN3Cc4ccc(C(F)(F)F)cc4C3)c2)CC1 [Compound 59]", "unit.string": "%", "inhibition at 0.1 µM": 60}
{"molecule": "O=C(N[C@H]1CC[C@H](CCOc2cc(CN3Cc4ccc(C(F)(F)F)cc4C3)ccn2)CC1)C1CC1 [Compound 65]", "unit.string": "%", "inhibition at 0.1 µM": 71}
{"molecule": "CS(=O)(=O)N1CC(OC(=O)N2CCC(CCOc3cc(CN4Cc5ccc(C(F)(F)F)cc5C4)ccn3)CC2)C1 [Compound 49]", "unit.string": "%", "inhibition at 0.1 µM": 57.7}
